Where do the numbers come from? From ChEMBL document CHEMBL1155506.

- assay-info: Total clearance in Sprague-Dawley rat at 2 mg/kg, iv after 24 hrs by HPLC/MS/MS analysis
- Type: ADME, organism-based
- Parameters: dose 2 mg/kg, route intravenous
- condition-details: in vivo
Answer each item with its documented clearance.
Give the value, in units of mL/min/kg, as a plain number.

Look up and report measured clearance for this entry: Cn1nccc1-c1cc(NC(=O)c2ccc(C(F)(F)F)cc2)ccc1OCCN1CCCC1
18.3

Look up and report measured clearance for this entry: Cn1nccc1-c1cc(NC(=O)c2ccc(F)cc2F)ccc1OCCN1CCOCC1
233

Look up and report measured clearance for this entry: Cn1nccc1-c1cc(NC(=O)c2cccc(C(F)(F)F)c2)ccc1OCCN1CCOCC1
160

Look up and report measured clearance for this entry: COc1cccc(C(=O)Nc2ccc(OCCN3CCOCC3)c(-c3ccnn3C)c2)c1
367

* * *

- assay-info: Total clearance in monkey at 2 mg/kg, iv after 24 hrs by HPLC/MS/MS analysis
- Assay type: ADME, organism-based, Macaca mulatta
- Design: dose 2 mg/kg, route intravenous
- condition-details: rhesus monkey, in vivo
observable: clearance

Look up and report measured clearance for this entry: COc1cccc(C(=O)Nc2ccc(OCCN3CCOCC3)c(-c3ccnn3C)c2)c1
15 mL/min/kg

* * *

- assay-info: Cmax in dog at 10 mg/kg, po after 24 hrs by HPLC/MS/MS assay
- Assay type: ADME, organism-based, Canis lupus familiaris
- Parameters: dose 10 mg/kg, route oral
- condition-details: in vivo
observable: Cmax (ng/mL)
Give the value, in units of ng/mL, as a plain number.

Look up and report measured Cmax for this entry: COc1cccc(C(=O)Nc2ccc(OCCN3CCOCC3)c(-c3ccnn3C)c2)c1
2280

* * *

- experimental-target: 5-hydroxytryptamine receptor 2A (Homo sapiens, UniProt P28223)
- Sequence (P28223 whole entry): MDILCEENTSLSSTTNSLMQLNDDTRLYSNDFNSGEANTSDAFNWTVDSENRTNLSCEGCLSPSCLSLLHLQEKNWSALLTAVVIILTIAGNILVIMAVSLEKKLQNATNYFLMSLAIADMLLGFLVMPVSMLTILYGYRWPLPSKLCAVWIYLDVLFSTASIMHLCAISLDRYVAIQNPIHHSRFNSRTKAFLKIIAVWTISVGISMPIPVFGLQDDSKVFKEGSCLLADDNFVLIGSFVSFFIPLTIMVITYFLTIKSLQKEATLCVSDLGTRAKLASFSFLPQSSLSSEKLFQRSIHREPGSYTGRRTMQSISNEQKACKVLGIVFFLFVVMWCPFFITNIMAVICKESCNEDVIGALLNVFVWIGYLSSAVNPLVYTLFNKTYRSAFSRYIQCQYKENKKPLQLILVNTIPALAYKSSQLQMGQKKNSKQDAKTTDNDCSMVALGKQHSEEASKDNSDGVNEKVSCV
- assay-info: Displacement of [125I]DOI from human recombinant 5HT2A receptor expressed in HEK293 cells by scintillation counting
- Type: cell-based
observable: log10 of Ki (log10 of the value in nM)
Scale: log10; quantity: Ki; unit before log: nM

Look up and report measured log10 of Ki for this entry: Cn1nccc1-c1cc(NC(=O)c2cccc(C(F)(F)F)c2)ccc1OCCN1CCOCC1
-0.15

Look up and report measured log10 of Ki for this entry: Cn1nccc1-c1cc(NC(=O)c2cccc(F)c2)ccc1OCCN1CCOCC1
0.71

Look up and report measured log10 of Ki for this entry: COc1cccc(C(=O)Nc2ccc(OCCN3CCOCC3)c(-c3ccnn3C)c2)c1
0.69

Look up and report measured log10 of Ki for this entry: CC(=O)N1CCN(CCOc2ccc(NC(=O)c3cccc(C(F)(F)F)c3)cc2-c2ccnn2C)CC1
0.63

Look up and report measured log10 of Ki for this entry: COc1cccc(C(=O)Nc2ccc(OCCN3CCN(S(C)(=O)=O)CC3)c(-c3ccnn3C)c2)c1
1.45

Look up and report measured log10 of Ki for this entry: Cn1nccc1-c1cc(NC(=O)c2cccc(C(F)(F)F)c2)ccc1OCCN1CCC(F)(F)C1
1.08

Look up and report measured log10 of Ki for this entry: COc1cccc(C(=O)Nc2ccc(OCCN3CCN(C(N)=O)CC3)c(-c3ccnn3C)c2)c1
0.71

Look up and report measured log10 of Ki for this entry: Cn1nccc1-c1cc(NC(=O)c2ccc(C(F)(F)F)cc2)ccc1OCCN1CCOCC1
0.38

Look up and report measured log10 of Ki for this entry: Cn1nccc1-c1cc(NC(=O)c2ccc(C(F)(F)F)cc2)ccc1OCCN1CCCC1
0.28
